# System: p09N1 (pH1N1 N1 neuraminidase) (Influenza A virus (A/California/04/2009(H1N1)))
# Experiment description: biochemical
Measure name: IC50 (nM)

[
  {
    "Molecule": "[H]/N=C(\\N)N[C@H]1C=C(C(=O)O)O[C@@H]([C@H](OC)[C@H](O)COC(=O)CCCCCCC)[C@@H]1NC(C)=O [CS-8958, laninamivir octanoate]",
    "System": "p09N1 (pH1N1 N1 neuraminidase) (Influenza A virus (A/California/04/2009(H1N1)))",
    "Recorded measurement": 947
  }
]

* * *

Listed here: items and their measured IC50.
# System: N5 (avian H12N5 neuraminidase) (Influenza A virus (A/duck/Alberta/60/1976(H12N5)))
# Experiment description: biochemical

[
  {
    "Compound": "[H]/N=C(\\N)N[C@H]1C=C(C(=O)O)O[C@@H]([C@H](OC)[C@H](O)COC(=O)CCCCCCC)[C@@H]1NC(C)=O [CS-8958, laninamivir octanoate]",
    "System": "N5 (avian H12N5 neuraminidase) (Influenza A virus (A/duck/Alberta/60/1976(H12N5)))",
    "IC50": "389 nM"
  },
  {
    "Compound": "CO[C@@H]([C@@H]1OC(C(=O)O)=C[C@H](NC(=N)N)[C@H]1NC(C)=O)[C@H](O)CO",
    "System": "N5 (avian H12N5 neuraminidase) (Influenza A virus (A/duck/Alberta/60/1976(H12N5)))",
    "IC50": "0.9 nM"
  },
  {
    "Compound": "CCOC(=O)C1=C[C@@H](OC(CC)CC)[C@H](NC(C)=O)[C@@H](N)C1",
    "System": "N5 (avian H12N5 neuraminidase) (Influenza A virus (A/duck/Alberta/60/1976(H12N5)))",
    "IC50": "0.83 nM"
  }
]
